# assay_details: Pharmacokinetic assay in mice
# Format: in vivo, BALB/c mice
# details: female, BALB/c, mouse, plasma, ip, 5 mg/kg i.p.
measured_quantity: half-life (h)
Just the number please, in h, no unit attached.

compound	observed_value
Cl.Cn1cc(CN2CCC3(CCN(c4ncc(C(=O)NO)cn4)C3)C2)c2cc(C#N)ccc21 (centres unmarked)	0.926

Turning now to a further record.
**Query** I would be grateful if you could share the reported half-life for Cn1cc(CNCC2CCN(c3ncc(C(=O)NO)cn3)CC2)c2ccccc21 [Quisinostat, reference compound] .
**Result** 6.13

----------
# Tested on: 293T cells
# assay_details: In vitro cytotoxicity analysis (CellTiter-Glo), 293T
# details: read-out: Cytotoxicity EC50, 293T; 72 h, CellTiter-Glo
pEC50: −log10 of the molar value.
T means recorded pEC50 is 6 or above; F means it is below 6.

molecule	assigned_label
Cl.O=C(NO)c1cnc(N2CCC3(CCN(Cc4cccs4)C3)C2)nc1 (stereo not shown)	F
Cl.O=C(NO)c1cnc(N2CCC3(CCN(Cc4ccccc4)C3)C2)nc1 (stereo not shown)	F
Cl.O=C(NO)c1cnc(N2CCC3(CCN(Cc4ccc5ncccc5c4)C3)C2)nc1 (stereo not shown)	F
Cl.O=C(NO)c1cnc(N2CCC3(CCNC3)C2)nc1 (stereo not shown)	F
Cl.O=C(NO)c1cnc(N2CCC3(CCN(Cc4cccnc4)C3)C2)nc1 (stereo not shown)	F
Cl.O=C(NO)c1cnc(N2CCC3(CCN(Cc4ccc(-c5ccccc5)cc4)C3)C2)nc1 (stereo not shown)	F

**Query** Hello, I need to know if Cl.O=C(NO)c1cnc(N2CCC3(CCN(Cc4ccc5ccccc5n4)C3)C2)nc1 (stereo not shown) has measured pEC50 not below 6. Thanks!
**Result** F

**Query** Again, but for Cl.Cn1cc(CN2CCC3(CC2)CCN(c2ncc(C(=O)NO)cn2)CC3)c2ccccc21
**Result** F

**Query** And then Cl.O=C(NO)c1cnc(N2CCC3(CCN(Cc4ccco4)C3)C2)nc1 (stereo not shown) , what is it?
**Result** F

**Query** Moving on to the next molecule: Cl.O=C(NO)c1cnc(N2CCC3(CCN(CC4CCCCC4)C3)C2)nc1 (stereo not shown)
**Result** T

**Query** Cn1cc(CNCC2CCN(c3ncc(C(=O)NO)cn3)CC2)c2ccccc21 [Quisinostat, reference compound] ?
**Result** T

**Query** And then CN(Cc1cn(C)c2ccccc12)C1CCN(c2ncc(C(=O)NO)cn2)CC1.Cl , what is it?
**Result** F

----------
# assay_details: Pharmacokinetic assay in mice
# Type: in vivo, BALB/c mice
# details: female, BALB/c, mouse, plasma, ip, 5 mg/kg i.p., read-out: Tmax
measured_quantity: Tmax (min)
Express the result in min but write the number alone.

**Query** Give its Tmax value. Item: Cl.Cn1cc(CN2CCC3(CCN(c4ncc(C(=O)NO)cn4)C3)C2)c2cc(C#N)ccc21 (stereo not shown)
**Result** 15

----------
# assay_details: In vitro cytotoxicity analysis (CellTiter-Glo), HepG2
# details: human, HepG2 cells
Property: log10 EC50 at 72 h; scope: individual molecules
Parameter value (number): base-10 log of EC50 at 72 h in nM.

Known log10 EC50 at 72 h results, listed for orientation:
molecule	log10 EC50 at 72 h
Cl.Cn1nc(CN2CCC3(CCN(c4ncc(C(=O)NO)cn4)C3)C2)c2ccccc21 (centres unmarked)	3.05
Cl.Cn1cc(CN2CCC3(CCCN(c4ncc(C(=O)NO)cn4)C3)CC2)c2ccccc21	3.37
Cn1cc(CN2CCC3(CCN(c4ncc(C(=O)NO)cn4)C3)C2)c2ccccc21 (centres unmarked)	2.05
COc1ccc2c(CN3CCC4(CCN(c5ncc(C(=O)NO)cn5)C4)C3)cn(C)c2c1.Cl (centres unmarked)	2.99
Cl.O=C(NO)c1cnc(N2CCC3(CCN(Cc4csc5ccccc45)C3)C2)nc1 (centres unmarked)	2.94

**Query** Which log10 EC50 at 72 h value belongs to COc1ccc(-c2nc(N3CCOCC3)c3sc(CN(C)c4ncc(C(=O)NO)cn4)cc3n2)cn1 [Fimepinostat, reference compound] ?
**Result** 1.85

**Query** Same question, Cl.O=C(NO)c1cnc(N2CCC3(CCN(Cc4ccc5c(c4)OCO5)C3)C2)nc1 (centres unmarked) this time
**Result** 2.69

**Query** Thanks! And Cl.O=C(NO)c1cnc(N2CCC3(CCN(Cc4ccc5c(c4)CCO5)C3)C2)nc1 (centres unmarked) ?
**Result** 3.12

----------
# Tested on: 293T cells
# assay_details: In vitro cytotoxicity analysis (CellTiter-Glo), 293T
# details: read-out: Cytotoxicity EC50, 293T; 72 h, CellTiter-Glo
Listed below: EC50 values for each entry.
Record the value in µM, omitting the unit from your answer.

Known results for compounds:
compound	EC50 [µM]
Cl.O=C(NO)c1cnc(N2CCC3(CCN(Cc4coc5ccccc45)C3)C2)nc1 (centres unmarked) [JX21113]	3.02
Cl.Cn1cc(CN2CCN(c3ncc(C(=O)NO)cn3)CC2)c2ccccc21 [JX21003]	0.047
Cl.Cn1cc(CN2CCC3(CCCN3c3ncc(C(=O)NO)cn3)CC2)c2ccccc21 [JX21019]	1

Next up:
**Query** Consider the compound Cl.O=C(NO)c1cnc(N2CCC3(CCN(Cc4ccsc4)C3)C2)nc1 (centres unmarked) [JX21120] and give its measured EC50.
**Result** 3.93

----------
Reported AUC(0-t) values follow for various compounds
# assay_details: Pharmacokinetic assay in mice
# Format: in vivo, BALB/c mice
# details: female, BALB/c, mouse, plasma, ip, 5 mg/kg i.p.
The answer is to be given in ng·h/mL; state only the numeric part.

compound	readout_units	AUC(0-t)
Cn1cc(CNCC2CCN(c3ncc(C(=O)NO)cn3)CC2)c2ccccc21 [Quisinostat, reference compound]	ng·h/mL	157

Now consider the entry below.
**Query** Which AUC(0-t) reading was recorded for the compound Cl.Cn1cc(CN2CCC3(CCN(c4ncc(C(=O)NO)cn4)C3)C2)c2cc(C#N)ccc21 (centres unmarked) [JX21108] ?
**Result** 432

----------
# assay_details: In vitro cytotoxicity analysis (CellTiter-Glo), 293T
# details: human, 293T cells, Cytotoxicity EC50, 293T, 72 h, CellTiter-Glo
Form field: EC50 at 72 h (one value per entry).
Quick reminder: number only, in nM, skip the unit.

**Query** Fill in: EC50 at 72 h of Cl.Cn1cc(CN2CC3CN(c4ncc(C(=O)NO)cn4)CC3C2)c2ccccc21 (centres unmarked) is ___
**Result** 307

**Query** Cool, now Cl.Cn1cc(CN2CCC3(CCN(c4ncc(C(=O)NO)cn4)C3)C2)c2cc(Br)ccc21 (centres unmarked)
**Result** 633

**Query** Now give it for Cl.Cn1cc(CN2CCC3(CCN(c4ncc(C(=O)NO)cn4)C3)C2)c2ccncc21 (centres unmarked) too.
**Result** 1120

**Query** // next record Cl.O=C(NO)c1cnc(N2CCC3(CCN(Cc4ccc5c(c4)OCO5)C3)C2)nc1 (centres unmarked)
**Result** 2450

**Query** Please do the same for Cl.Cn1c(CN2CCC3(CCN(c4ncc(C(=O)NO)cn4)C3)C2)cc2ccccc21 (centres unmarked) as well.
**Result** 1200

----------
# assay_system: hHDAC2 (Homo sapiens)
# Sequence (Q92769 whole entry): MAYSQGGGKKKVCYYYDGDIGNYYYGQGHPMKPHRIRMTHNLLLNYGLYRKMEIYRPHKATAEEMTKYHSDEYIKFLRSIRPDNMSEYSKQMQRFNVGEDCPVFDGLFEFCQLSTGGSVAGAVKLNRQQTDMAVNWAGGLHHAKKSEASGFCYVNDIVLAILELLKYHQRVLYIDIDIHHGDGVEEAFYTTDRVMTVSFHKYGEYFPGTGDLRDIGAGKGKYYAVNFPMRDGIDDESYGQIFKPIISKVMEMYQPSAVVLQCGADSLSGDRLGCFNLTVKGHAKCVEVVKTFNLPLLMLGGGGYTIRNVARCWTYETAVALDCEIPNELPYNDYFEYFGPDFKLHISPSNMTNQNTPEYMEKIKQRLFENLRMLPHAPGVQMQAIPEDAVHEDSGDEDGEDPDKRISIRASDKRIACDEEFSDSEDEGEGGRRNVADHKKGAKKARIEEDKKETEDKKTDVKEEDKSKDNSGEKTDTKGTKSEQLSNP
measured_quantity: IC50 (nM)
Respond numerically; units are nM and should not be typed.

**Query** Give its IC50 value. Item: Cl.Cn1cc(CN2CCC3(CCN(c4ncc(C(=O)NO)cn4)C3)C2)c2cc(C#N)ccc21 (stereo not shown)
**Result** 4.6

----------
# maps each entry to its EC50
# System: P. falciparum isolate 6218
# assay_details: 3-day SYBR Green I GIA, field isolate 6218
# Assay type: cell-based
# details: Plasmodium falciparum; artemisinin- and piperaquine-resistant isolate; read-out: Resistant isolates EC50, 6218
Number only, in nM; omit the unit.

**Query** For the molecule shown here, Cl.Cn1cc(CN2CCC3(CCN(c4ncc(C(=O)NO)cn4)C3)C2)c2cc(C#N)ccc21 (centres unmarked) [JX21108] , give the reported EC50.
**Result** 2.2

**Query** Then this molecule: C[C@H]1[C@@H](O)O[C@@H]2O[C@@]3(C)CC[C@H]4[C@H](C)CC[C@@H]1[C@@]24OO3 [DHA, dihydroartemisinin, reference compound]
**Result** 5.5

----------
# pIC50 per entry
Target protein (sequence): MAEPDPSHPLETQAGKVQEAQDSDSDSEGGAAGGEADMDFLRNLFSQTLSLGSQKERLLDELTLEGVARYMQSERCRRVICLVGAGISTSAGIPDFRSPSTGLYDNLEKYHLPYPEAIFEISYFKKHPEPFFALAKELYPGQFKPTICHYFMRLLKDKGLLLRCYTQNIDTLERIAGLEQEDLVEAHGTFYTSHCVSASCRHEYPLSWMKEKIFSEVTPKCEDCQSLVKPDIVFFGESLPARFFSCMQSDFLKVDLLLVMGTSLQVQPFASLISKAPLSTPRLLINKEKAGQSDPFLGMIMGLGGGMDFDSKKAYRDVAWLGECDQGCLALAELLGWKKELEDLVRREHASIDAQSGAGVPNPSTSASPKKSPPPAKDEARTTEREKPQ
pIC50: −log10 of the molar value.

molecule	pIC50
Cn1cc(CNCC2CCN(c3ncc(C(=O)NO)cn3)CC2)c2ccccc21 [Quisinostat, reference compound]	< 5.00

Next:
**Query** Please report the recorded pIC50 for Cl.Cn1cc(CN2CCC3(CCN(c4ncc(C(=O)NO)cn4)C3)C2)c2cc(C#N)ccc21 (centres unmarked) [JX21108] .
**Result** < 5.00
